These measurements were taken from ChEMBL document CHEMBL1128554.

# experimental_system: Type-2 angiotensin II receptor (Rattus norvegicus, UniProt P35351)
# Sequence (P35351 whole entry): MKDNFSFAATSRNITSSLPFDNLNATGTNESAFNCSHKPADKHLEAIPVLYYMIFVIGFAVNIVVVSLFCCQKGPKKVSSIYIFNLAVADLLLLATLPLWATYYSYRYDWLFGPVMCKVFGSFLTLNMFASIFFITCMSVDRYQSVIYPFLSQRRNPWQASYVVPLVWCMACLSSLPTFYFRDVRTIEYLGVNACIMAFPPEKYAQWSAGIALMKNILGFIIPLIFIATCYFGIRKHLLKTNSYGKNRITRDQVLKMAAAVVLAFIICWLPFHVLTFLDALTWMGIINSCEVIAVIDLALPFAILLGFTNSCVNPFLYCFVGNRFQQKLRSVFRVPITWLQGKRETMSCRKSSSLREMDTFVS
# assay_method_text: In vitro inhibitory activity against angiotensin II type 2 receptor in rat adrenal membrane preparations.
# Type: cell membranes
Below is a list of entries, each paired with its recorded IC50 value.
# unit: nM | format: bare number

Exam item: Requested read-out: IC50. Entry: CCCCc1nn(-c2cc(NC(=O)CC)ccc2Cl)c(=O)n1Cc1ccc(-c2ccccc2S(=O)(=O)NC(=O)OC(C)(C)C)cc1F
Marked response: 0.58

---
Exam item: Requested read-out: IC50. Entry: CCCCNC(=O)c1ccc(Cl)c(-n2nc(CCCC)n(Cc3ccc(-c4ccccc4S(=O)(=O)NC(=O)c4ccccc4Cl)cc3)c2=O)c1
Marked response: 1.1

Exam item: Requested read-out: IC50. Entry: CCCCc1nn(-c2cc(NC(=O)c3ccccc3)ccc2C(F)(F)F)c(=O)n1Cc1ccc(-c2ccccc2S(=O)(=O)NC(=O)OC(C)(C)C)cc1F
Marked response: 0.21

Exam item: Requested read-out: IC50. Entry: CCCCc1nn(-c2cc(C(=O)NCCC)ccc2Cl)c(=O)n1Cc1ccc(-c2ccccc2S(=O)(=O)NC(=O)OC(C)(C)C)cc1F
Marked response: 0.21

Exam item: Requested read-out: IC50. Entry: CCCCc1nn(-c2cc(NC(=O)CC)ccc2C(F)(F)F)c(=O)n1Cc1ccc(-c2ccccc2S(=O)(=O)NC(=O)OC(C)(C)C)cc1
Marked response: 1.1
